Assay overview: Measurement of fluorescence quantum yield (Rhodamine B in ethanol as reference)
Type: physicochemical
Experimental parameters: solvent DCM
Parameter measured: Φ1 (fluorescence quantum yield)

| Molecule | Parameter measured | Observed |
| --- | --- | --- |
| CCN1/C(=C/C=C/C(=C/C2=[N+](CC)c3ccccc3C2(C)C)N(CCO)CCO)C(C)(C)c2ccccc21 [Dye IIc] | Φ1 (fluorescence quantum yield) | 0.124 |
| CCN1/C(=C/C=C/C(=C/C2=[N+](CC)c3ccccc3C2(C)C)Nc2ccccc2)C(C)(C)c2ccccc21 [Dye IIg] | Φ1 (fluorescence quantum yield) | 0.064 |
| CCN(CC)C(=C\C1=[N+](CC)c2ccccc2C1(C)C)/C=C/C=C1/N(CC)c2ccccc2C1(C)C [Dye IId] | Φ1 (fluorescence quantum yield) | 0.124 |
| CCN1/C(=C/C=C/C(N)=C/C2=[N+](CC)c3ccccc3C2(C)C)C(C)(C)c2ccccc21 [Dye IIa] | Φ1 (fluorescence quantum yield) | 0.115 |
